- system.tested: T1, CCL4L1_HUMAN (Homo sapiens, UniProt Q8NHW4)
- T1 sequence (Q8NHW4 24-92): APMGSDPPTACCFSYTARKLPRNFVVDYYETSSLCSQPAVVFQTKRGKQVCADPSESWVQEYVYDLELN
- method: Biolayer interferometry (BLI) binding
measurement.name: Kd (nM)
Field: numeric (nM). Do not append units.

[ask] Could you share which Kd value was measured for P991_AMBCA: tick CKBP, Amblyomma cajennense (protein, Amblyomma cajennense) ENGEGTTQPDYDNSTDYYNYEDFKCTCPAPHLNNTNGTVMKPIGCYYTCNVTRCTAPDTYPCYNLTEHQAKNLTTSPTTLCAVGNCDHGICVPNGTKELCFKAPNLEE ?
[reply] 0.827

[ask] Another: P546_AMBCA: tick CKBP, Amblyomma cajennense (protein, Amblyomma cajennense) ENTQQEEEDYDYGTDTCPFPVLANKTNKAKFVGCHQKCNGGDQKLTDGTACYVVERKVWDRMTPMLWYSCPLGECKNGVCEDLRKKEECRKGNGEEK
[reply] 8.9

[ask] Would you kindly repeat that for P1182_AMBMA: tick CKBP, Amblyomma maculatum (protein, listed as Amblyomma maculatum) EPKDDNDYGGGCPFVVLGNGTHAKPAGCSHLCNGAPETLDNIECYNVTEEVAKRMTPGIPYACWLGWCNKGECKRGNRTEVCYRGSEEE ?
[reply] 92
